Cited source: paper PMC7954794

Collected screen value values appear next to each entry.
B1: S. cerevisiae Abp1 (full length; SH3 domain 535-592 mutated) / Hua2 (parent)
chain 1: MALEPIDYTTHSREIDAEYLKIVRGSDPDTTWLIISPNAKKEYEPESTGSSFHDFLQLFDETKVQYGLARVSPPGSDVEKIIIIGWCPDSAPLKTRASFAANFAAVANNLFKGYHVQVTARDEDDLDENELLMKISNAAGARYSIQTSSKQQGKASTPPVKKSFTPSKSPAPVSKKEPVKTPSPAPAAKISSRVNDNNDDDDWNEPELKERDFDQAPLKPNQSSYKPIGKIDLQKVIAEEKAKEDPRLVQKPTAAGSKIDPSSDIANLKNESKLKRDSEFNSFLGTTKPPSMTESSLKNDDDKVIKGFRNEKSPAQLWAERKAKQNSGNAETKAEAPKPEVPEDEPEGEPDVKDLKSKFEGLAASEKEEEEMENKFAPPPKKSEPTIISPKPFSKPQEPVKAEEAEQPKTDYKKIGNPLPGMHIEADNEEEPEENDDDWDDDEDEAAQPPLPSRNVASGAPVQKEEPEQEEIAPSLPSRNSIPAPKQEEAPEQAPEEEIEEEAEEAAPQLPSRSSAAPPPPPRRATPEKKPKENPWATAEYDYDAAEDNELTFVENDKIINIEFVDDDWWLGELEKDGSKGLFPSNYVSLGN
chain 2: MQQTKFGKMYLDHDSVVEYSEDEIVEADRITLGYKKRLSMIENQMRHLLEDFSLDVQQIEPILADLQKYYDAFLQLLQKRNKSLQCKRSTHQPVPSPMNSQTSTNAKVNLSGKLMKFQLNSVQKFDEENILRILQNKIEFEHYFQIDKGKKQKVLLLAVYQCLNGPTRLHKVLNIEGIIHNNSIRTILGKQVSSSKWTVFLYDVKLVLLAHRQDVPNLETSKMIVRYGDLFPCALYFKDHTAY

# Variants of: B1
# assay.explanation: DHFR protein-fragment complementation in yeast (Abp1-DHFR F[1,2] x partner-DHFR F[3]), deep mutational scanning, second methotrexate selection vs reference
# measurement.setup: with Hua2; S. cerevisiae, DHFR-PCA selection in liquid with methotrexate at 30 C, two 72 h selections (the score uses the second); reference = the pre-selection culture; not an affinity; value at the no-binding floor (a bound); scale: DMS score: mean over two replicates of log2(f_test/f_ref + 0.5)/ln 2, minus the synonymous-codon median

Below, 10 variants whose answers are already recorded.
INSERT INTO results (variant_label, measured_result) VALUES
  ('chain 1 P584D', '< -3.06'),
  ('chain 1 L582E', -3.03),
  ('chain 1 D557I', '< -3.06'),
  ('chain 1 V588H', '< -3.06'),
  ('chain 1 F553K', '< -3.06'),
  ('chain 1 I562P', '< -3.06'),
  ('chain 1 L590D', '< -3.06'),
  ('chain 1 P584C', -3.02),
  ('chain 1 A539F', '< -3.06'),
  ('chain 1 P584E', '< -3.06');

The reported screen value of the variant chain 1 L582T was -3.01

Record summary for chain 1 G572D : reported screen value = < -3.06

Data point: chain 1 G572I ; screen value = < -3.06

chain 1 F583H yielded screen value of < -3.06

Sure, the documented screen value for chain 1 Y587P is < -3.06

Measured screen value of chain 1 G581H : < -3.06

The variant chain 1 G581I showed screen value equal to < -3.06
